Consider the following compounds; for each one, report its MRT inf.
assay-procedure: MRT (0 to infinity) in overnight fasted CD-1 mouse total brain at 50 mg/kg, po by HPLC analysis
Type: ADME, organism-based
Give the value in h but do not write h after it.

The reported MRT inf of the compound `O=C(N[C@H]1CC[C@H](O)CC1)[C@@H]1C[C@H]1CCCc1ccccc1` was 1.98

The reported MRT inf of the compound `O=C(CCCCCc1ccccc1)N[C@H]1CC[C@H](O)CC1` was 0.959

---

assay-procedure: Plasma protein binding in mouse assessed as bound fraction at 2 uM measured after 120 mins by equilibrium dialysis method
Type: ADME, cell-free
assay-conditions: read-out: PPB (converted)
reported-endpoint: fraction unbound at 2 h, 2 µM
# answer = number (no unit)

The reported fraction unbound at 2 h, 2 µM of the compound O=C(N[C@H]1CC[C@H](O)CC1)C1CCC(CCCc2ccccc2)C1 (stereo partly specified) was 0.012

---

assay-procedure: Tmax in non-fasted CD-1 mouse left sciatic nerve at 50 mg/kg, po by HPLC analysis
Format: ADME, organism-based
reported-endpoint: Tmax

The reported Tmax of the compound `O=C(N[C@H]1CC[C@H](O)CC1)[C@@H]1C[C@H]1CCCc1ccccc1` was 30 min

---

assay-procedure: Tmax in non-fasted CD-1 mouse spinal cord at 50 mg/kg, po by HPLC analysis
Format: ADME, organism-based
reported-endpoint: Tmax (min)
Give the value in min but do not write min after it.

The reported Tmax of the compound `O=C(N[C@H]1CC[C@H](O)CC1)[C@@H]1C[C@H]1CCCc1ccccc1` was 30

---

assay-procedure: Volume of distribution at steady state in CD-1 mouse at 10 mg/kg, iv administered as single dose by HPLC analysis
Type: ADME, organism-based
assay-conditions: in vivo, read-out: Vdss
reported-endpoint: Vd (L/kg)
Give the value in L/kg but do not write L/kg after it.

The reported Vd of the compound O=C(N[C@H]1CC[C@H](O)CC1)C1CC1CCCc1ccccc1 (stereo partly specified) was 0.6

---

assay-procedure: MRT (0 to infinity) in overnight fasted CD-1 mouse total plasma at 50 mg/kg, po by HPLC analysis
Type: ADME, organism-based
reported-endpoint: MRT inf (h)
Give the value in h but do not write h after it.

The reported MRT inf of the molecule `O=C(CCCCCc1ccccc1)N[C@H]1CC[C@H](O)CC1` was 1.01

The reported MRT inf of the molecule `O=C(N[C@H]1CC[C@H](O)CC1)[C@@H]1C[C@H]1CCCc1ccccc1` was 1.92
